Target: c-RAF (Homo sapiens, UniProt P04049)
Construct: purchased Upstate (Charlottesville, Va.)
Sequence (P04049 whole entry, species assumed): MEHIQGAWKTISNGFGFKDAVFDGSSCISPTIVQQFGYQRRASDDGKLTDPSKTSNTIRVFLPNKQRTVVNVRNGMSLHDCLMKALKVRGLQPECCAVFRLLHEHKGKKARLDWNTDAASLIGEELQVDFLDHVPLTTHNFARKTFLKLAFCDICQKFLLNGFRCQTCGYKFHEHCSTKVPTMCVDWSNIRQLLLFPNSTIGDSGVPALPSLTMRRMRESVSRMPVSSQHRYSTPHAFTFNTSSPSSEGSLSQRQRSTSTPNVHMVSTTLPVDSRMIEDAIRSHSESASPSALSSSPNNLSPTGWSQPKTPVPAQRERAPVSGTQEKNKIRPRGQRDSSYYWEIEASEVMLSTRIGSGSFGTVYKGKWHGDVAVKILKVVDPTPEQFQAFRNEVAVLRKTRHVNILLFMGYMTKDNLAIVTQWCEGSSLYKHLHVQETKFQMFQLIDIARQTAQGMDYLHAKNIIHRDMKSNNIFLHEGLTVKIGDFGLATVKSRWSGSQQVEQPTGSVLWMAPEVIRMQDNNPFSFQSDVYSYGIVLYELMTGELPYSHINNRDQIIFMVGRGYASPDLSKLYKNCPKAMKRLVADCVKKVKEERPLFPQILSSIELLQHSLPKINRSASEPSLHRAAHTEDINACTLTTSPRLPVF
Experiment: Broad selectivity panel, 32P incorporation
Assay type: biochemical
Conditions: 0.1 μM compound, 40 μM ATP; read-out: Percent inhibition c-RAF
Method: Various compounds of the present invention are screened against a panel of 24 additional kinases (Upstate, Charlottesville, Va.). Compounds are tested 0.1 μM and 1 μM in reactions containing 40 μM ATP. Incorporation of radiolabeled phosphate (^32P) into each kinase substrate is measured in the presence and absence of test compound. Results are reported as the percent decrease in the amount of ^32P incorporated into the substrate in the presence of compound, compared to buffer control.
Threshold check on inhibition at 0.1 µM: at or above 20% gives 1 (yes), strictly below gives 0 (no).

[[record]]
compound = "Fc1ccc(-c2nc3occn3c2-c2ccnc(NC3CCNCC3)n2)cc1 [CCLXXX]"
class = "1 (yes)"

[[record]]
compound = "Fc1ccc(-c2nc3occn3c2-c2ccnc(N[C@@H]3CN4CCC3CC4)n2)cc1 [LXXI]"
class = "0 (no)"

[[record]]
compound = "CN(C)CC(C)(C)CNc1nccc(-c2c(-c3ccc(F)cc3)nc3occn23)n1 [CXIX]"
class = "0 (no)"

[[record]]
compound = "CS(=O)(=O)N1CCC(Nc2nccc(-c3c(-c4ccc(F)cc4)nc4occn34)n2)CC1 [CCLXXIX]"
class = "1 (yes)"


Exam item: Kindly determine if inhibition at 0.1 µM recorded for CN1[C@@H]2CC[C@H]1C[C@@H](Nc1nccc(-c3c(-c4ccc(F)cc4)nc4occn34)n1)C2 [CCLXXXI] is above or exactly 20%.
Marked response: 0 (no)

Exam item: Next compound up: Fc1ccc(-c2nc3occn3c2-c2ccnc(N[C@H]3CN4CCC3CC4)n2)cc1 [LXXXVII]
Marked response: 0 (no)

Exam item: Next compound up: CC(=O)N1CCC(Nc2nccc(-c3c(-c4ccc(F)cc4)nc4occn34)n2)CC1 [CCLXXVIII]
Marked response: 1 (yes)

Cited source for all entries: patent US20070270418A1
